meta.source: PubChem BioAssay AID504848

test: Confirmation screen for delayed death inhibitors of the malarial parasite plastid, 96 hour incubation; note: nearly all actives have a fitted effect of over 60% in size; settings: P. falciparum luciferase growth in erythrocytes; series mostly up to 28.7 µM
About 1,400 (61%) of roughly 2,300 compounds were called active. About 29% were inconclusive and are not listed. Calls come from the whole dose curve; as a rule, active = well fitted inhibition curve with a large enough effect; inconclusive = small, poorly fitted or top-dose-only effect, or effect the other way; inactive = no such curve, though single readings can be large or run the other way. So high a share suggests a set chosen from earlier hits. The list shows a part of the results.
I would appreciate it if you answered using one of these outcomes: class 1 for active, class 0 for inactive

These solved cases illustrate the format of a correct answer.
COC(=O)[C@@]12CCCN1[C@H](c1ccc(-c3cccc(Cl)c3)c(OC)c1)[C@H]1C(=O)N(C)C(=O)[C@H]12 | class 1
Cc1noc(C)c1C(=O)Nc1nc(-c2ccc(F)cc2)cs1 | class 0
COc1ccc2cc3cc(C(=O)N(C)C4CCCCC4)oc3nc2c1 | class 1
CCCc1c(NC(=O)Nc2ccc(F)cc2)cnn1-c1ccccc1 | class 1
O=C(COc1ccccc1)N1c2ccccc2Sc2ccccc21 | class 1

Call for entry COc1ccc2cc3cc(C(=O)Nc4ccc5c(c4)OCO5)oc3nc2c1 :
class 1
